# Tested on: CD4+ clone 436/B6.37 (B6/37)
# measurementNotes: IFN-γ/TNF production by CD4+ clone B6/37 (clone 37) stimulated with peptide- or protein-pulsed EBV-B cells
# Assay type: cell-based, human
# measurementConditions: peptide concentration 10 ng/ml; autologous LB 1555 EBV-B cells
resultType: IFN-γ production by clone 37 (pg/mL)
Report as a plain number; the unit pg/mL is understood.

Specify IFN-γ production by clone 37 for AELVHFLLLKYRARE (listed as Homo sapiens) and stop.
235

Specify IFN-γ production by clone 37 for AELVHFLLLKYRA (listed as Homo sapiens) and stop.
620

Specify IFN-γ production by clone 37 for AELVHFLLLKYRAR (listed as Homo sapiens) and stop.
802

Specify IFN-γ production by clone 37 for ELVHFLLLKYRAR (listed as Homo sapiens) and stop.
333

Specify IFN-γ production by clone 37 for VAELVHFLLLKYRA (listed as Homo sapiens) and stop.
87

Specify IFN-γ production by clone 37 for VAELVHFLLLKYRAR (listed as Homo sapiens) and stop.
779

Specify IFN-γ production by clone 37 for ELVHFLLLKYRARE (listed as Homo sapiens) and stop.
166

Specify IFN-γ production by clone 37 for VAELVHFLLLKYRARE (listed as Homo sapiens) and stop.
376
